Recorded EC50 for the following compounds
- Assay system: human toll like receptor 8 (hTLR8) (Homo sapiens, UniProt Q9NR97)
- Sequence (Q9NR97 27-1041): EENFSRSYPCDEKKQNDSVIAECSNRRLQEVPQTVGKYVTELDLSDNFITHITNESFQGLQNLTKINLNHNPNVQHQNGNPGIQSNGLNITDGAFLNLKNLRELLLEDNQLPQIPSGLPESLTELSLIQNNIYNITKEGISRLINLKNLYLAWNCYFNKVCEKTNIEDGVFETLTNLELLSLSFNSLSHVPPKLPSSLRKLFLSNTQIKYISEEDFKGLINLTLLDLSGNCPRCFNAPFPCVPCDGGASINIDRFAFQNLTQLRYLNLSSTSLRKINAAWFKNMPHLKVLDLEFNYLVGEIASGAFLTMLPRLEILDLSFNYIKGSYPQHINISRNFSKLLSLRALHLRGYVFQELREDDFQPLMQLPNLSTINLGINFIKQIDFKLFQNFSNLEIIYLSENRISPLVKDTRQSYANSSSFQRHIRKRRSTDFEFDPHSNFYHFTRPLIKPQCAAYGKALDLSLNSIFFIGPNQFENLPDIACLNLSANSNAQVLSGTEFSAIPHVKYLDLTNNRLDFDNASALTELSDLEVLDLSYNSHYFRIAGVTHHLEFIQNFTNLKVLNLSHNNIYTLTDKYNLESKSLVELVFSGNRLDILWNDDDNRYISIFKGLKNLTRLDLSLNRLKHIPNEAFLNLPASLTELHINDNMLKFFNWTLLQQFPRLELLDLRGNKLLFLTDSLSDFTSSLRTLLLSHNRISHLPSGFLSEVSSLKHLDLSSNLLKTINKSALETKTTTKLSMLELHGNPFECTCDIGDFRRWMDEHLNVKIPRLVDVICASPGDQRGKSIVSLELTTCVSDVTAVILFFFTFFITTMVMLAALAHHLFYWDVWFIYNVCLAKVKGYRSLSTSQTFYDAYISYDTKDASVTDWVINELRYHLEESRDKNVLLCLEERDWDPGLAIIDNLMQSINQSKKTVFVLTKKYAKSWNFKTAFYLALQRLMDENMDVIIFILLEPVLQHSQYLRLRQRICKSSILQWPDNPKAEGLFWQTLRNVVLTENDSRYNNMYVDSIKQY
- Test: hTLR8 in-vitro functional assay (HEK-Blue hTLR8 SEAP reporter)
- Assay context: HEK-Blue hTLR8 cells, overnight incubation
Give your result in µM as a bare value.

Recorded results for 2 compounds are shown here.
CCCCc1nc2c(N)nc3cc(CCCN4CCN(C(=O)CCOCCOCCOCCOCCOCCOCCOCCOCCOCCOCCOCCOCCOCCOCCOCCOCCOCCOCCOCCOCCOCCOCCOCCOCCNC(=O)CCOCCOCCOCCOCCNC(=O)O[C@H]5CC[C@@]6(C)C(=CC[C@H]7[C@@H]8CC[C@H]([C@H](C)CCCC(C)C)[C@@]8(C)CC[C@@H]76)C5)CC4)ccc3c2n1CC(C)(CO)CO [Compound 1] :: 1.36
CCCCc1nc2c(N)nc3cc(CCCN4CCN(Cc5ccc(NC(=O)[C@H](CCCNC(N)=O)NC(=O)[C@@H](NC(=O)COCCOCCNC(=O)O[C@H]6CC[C@@]7(C)C(=CC[C@H]8[C@@H]9CC[C@H]([C@H](C)CCCC(C)C)[C@@]9(C)CC[C@@H]87)C6)C(C)C)cc5)CC4)ccc3c2n1CC(C)(CO)CO [Compound 29] :: 5.03

Shift focus to the following entry.
Query string: Query (compound): CCCCc1nc2c(N)nc3cc(CCCN4CCN(C(=O)CCOCCOCCOCCOCCOCCOCCOCCOCCOCCOCCOCCOCCOCCOCCOCCOCCOCCOCCOCCOCCOCCOCCOCCOCCNC(=O)O[C@H]5CC[C@@]6(C)C(=CC[C@H]7[C@@H]8CC[C@H]([C@H](C)CCCC(C)C)[C@@]8(C)CC[C@@H]76)C5)CC4)ccc3c2n1CC(C)(CO)CO [Compound 9] ; field requested: EC50
Result string: 16

---

- Test: Lymph node localization of AMP adjuvants in female BALB/c mice (LC-MS)
- Type: in vivo
- Assay context: mouse, plasma, 2 nmol intramuscular, 4 h post injection, read-out: concentration in plasma
Metric: concentration at 4 h (µg/mL)
Give your result in µg/mL as a bare value.

Query string: Query (molecule): CCCCc1nc2c(N)nc3cc(CCCN4CCN(C(=O)CCOCCOCCOCCOCCOCCOCCOCCOCCOCCOCCOCCOCCOCCOCCOCCOCCOCCOCCOCCOCCOCCOCCOCCOCCNC(=O)CCOCCOCCOCCOCCNC(=O)CCCOc5c(C)c(C)c6c(c5C)CC[C@@](C)(CCC[C@H](C)CCC[C@H](C)CCCC(C)C)O6)CC4)ccc3c2n1CC(C)(CO)CO [Compound 2] ; field requested: concentration at 4 h
Result string: 1.1

---

- Assay system: human toll like receptor 7 (hTLR7) (Homo sapiens, UniProt Q9NYK1)
- Sequence (Q9NYK1 27-1049): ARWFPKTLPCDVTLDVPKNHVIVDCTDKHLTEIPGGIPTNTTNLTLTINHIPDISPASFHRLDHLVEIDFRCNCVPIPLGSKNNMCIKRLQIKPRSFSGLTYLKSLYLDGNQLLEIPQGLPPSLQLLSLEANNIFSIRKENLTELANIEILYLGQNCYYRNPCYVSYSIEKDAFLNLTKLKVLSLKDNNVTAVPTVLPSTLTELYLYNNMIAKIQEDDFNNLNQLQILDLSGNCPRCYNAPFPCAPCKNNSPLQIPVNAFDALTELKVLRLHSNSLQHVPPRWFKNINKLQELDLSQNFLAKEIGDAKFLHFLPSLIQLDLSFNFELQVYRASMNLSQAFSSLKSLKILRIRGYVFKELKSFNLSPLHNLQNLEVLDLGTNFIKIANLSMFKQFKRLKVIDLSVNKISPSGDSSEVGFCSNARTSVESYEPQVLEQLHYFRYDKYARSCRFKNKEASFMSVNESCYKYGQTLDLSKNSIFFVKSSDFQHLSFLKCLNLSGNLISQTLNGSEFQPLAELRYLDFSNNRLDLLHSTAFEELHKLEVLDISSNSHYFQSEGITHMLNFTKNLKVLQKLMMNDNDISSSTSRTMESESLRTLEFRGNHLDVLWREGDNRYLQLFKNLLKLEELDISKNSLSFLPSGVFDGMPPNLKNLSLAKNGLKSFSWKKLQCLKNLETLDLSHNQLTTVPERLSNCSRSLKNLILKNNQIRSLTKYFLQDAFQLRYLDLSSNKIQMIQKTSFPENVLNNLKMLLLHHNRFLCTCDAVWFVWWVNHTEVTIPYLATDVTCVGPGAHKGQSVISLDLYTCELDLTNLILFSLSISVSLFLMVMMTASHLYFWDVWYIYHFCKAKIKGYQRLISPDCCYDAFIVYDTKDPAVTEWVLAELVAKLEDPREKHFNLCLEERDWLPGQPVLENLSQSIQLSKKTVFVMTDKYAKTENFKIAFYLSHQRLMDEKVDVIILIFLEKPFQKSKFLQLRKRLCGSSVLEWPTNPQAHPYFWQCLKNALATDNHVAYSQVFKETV
- Test: hTLR7 in-vitro functional assay (HEK-Blue hTLR7 SEAP reporter)
- Assay context: HEK-Blue hTLR7 cells, overnight incubation
Metric: pEC50
API: returns pEC50 as number; meaning -log10 of concentration in mol/L.

CCCCc1nc2c(N)nc3cc(CCCN4CCN(CCCOCCOCCOCCOCCOCCOCCOCCOCCOCCOCCOCCOCCOCCOCCOCCOCCOCCOCCOCCOCCOCCOCCOCCOCCNC(=O)O[C@H]5CC[C@@]6(C)C(=CC[C@H]7[C@@H]8CC[C@H]([C@H](C)CCCC(C)C)[C@@]8(C)CC[C@@H]76)C5)CC4)ccc3c2n1CC(C)(CO)CO :: 6.56
CCCCc1nc2c(N)nc3cc(CCCN4CCN(C(=O)CCOCCOCCOCCOCCOCCOCCOCCOCCOCCOCCOCCOCCOCCOCCOCCOCCOCCOCCOCCOCCOCCOCCOCCOCCOCCOCCOCCOCCOCCOCCOCCOCCOCCOCCOCCOCCNC(=O)CCOCCOCCOCCOCCNC(=O)O[C@H]5CC[C@@]6(C)C(=CC[C@H]7[C@@H]8CC[C@H]([C@H](C)CCCC(C)C)[C@@]8(C)CC[C@@H]76)C5)CC4)ccc3c2n1CC(C)(CO)CO :: 7.28

Query string: State its pEC50 on human toll like receptor 7 (hTLR7) (Homo sapiens, UniProt Q9NYK1): "CCCCc1nc2c(N)nc3cc(CCCN4CCN(CCCOCCOCCOCCOCCOCCOCCOCCOCCOCCOCCOCCOCCNC(=O)O[C@H]5CC[C@@]6(C)C(=CC[C@H]7[C@@H]8CC[C@H]([C@H](C)CCCC(C)C)[C@@]8(C)CC[C@@H]76)C5)CC4)ccc3c2n1CC(C)(CO)CO"
Result string: 6.27

Query string: State its pEC50 on human toll like receptor 7 (hTLR7) (Homo sapiens, UniProt Q9NYK1): "CCCCc1nc2c(N)nc3cc(CCCN4CCN(CCCOCCOCCOCCOCCNC(=O)CCOCCOCCOCCOCCNC(=O)O[C@H]5CC[C@@]6(C)C(=CC[C@H]7[C@@H]8CC[C@H]([C@H](C)CCCC(C)C)[C@@]8(C)CC[C@@H]76)C5)CC4)ccc3c2n1CC(C)(CO)CO"
Result string: 6.56

Query string: State its pEC50 on human toll like receptor 7 (hTLR7) (Homo sapiens, UniProt Q9NYK1): "CCCCc1nc2c(N)nc3cc(CCCN4CCN(C(=O)CCOCCOCCOCCOCCNC(=O)O[C@H]5CC[C@@]6(C)C(=CC[C@H]7[C@@H]8CC[C@H]([C@H](C)CCCC(C)C)[C@@]8(C)CC[C@@H]76)C5)CC4)ccc3c2n1CC(C)(CO)CO"
Result string: 6.68

Query string: State its pEC50 on human toll like receptor 7 (hTLR7) (Homo sapiens, UniProt Q9NYK1): "CCCCc1nc2c(N)nc3cc(CCCN4CCN(CCCOCCOCCOCCOCCOCCOCCOCCOCCOCCOCCOCCOCCOCCOCCOCCOCCOCCOCCOCCOCCOCCOCCOCCOCCNC(=O)CCOCCOCCOCCOCCNC(=O)CCCOc5c(C)c(C)c6c(c5C)CC[C@@](C)(CCC[C@H](C)CCC[C@H](C)CCCC(C)C)O6)CC4)ccc3c2n1CC(C)(CO)CO"
Result string: 6.39

Query string: State its pEC50 on human toll like receptor 7 (hTLR7) (Homo sapiens, UniProt Q9NYK1): "CCCCc1nc2c(N)nc3cc(CCCN4CCN(C(=O)CCOCCOCCOCCOCCOCCOCCOCCOCCOCCOCCOCCOCCOCCOCCOCCOCCOCCOCCOCCOCCOCCOCCOCCOCCNC(=O)O[C@H]5CC[C@@]6(C)C(=CC[C@H]7[C@@H]8CC[C@H]([C@H](C)CCCC(C)C)[C@@]8(C)CC[C@@H]76)C5)CC4)ccc3c2n1CC(C)(CO)CO"
Result string: 6.74

Query string: State its pEC50 on human toll like receptor 7 (hTLR7) (Homo sapiens, UniProt Q9NYK1): "CCCCc1nc2c(N)nc3cc(CCCN4CCN(Cc5ccc(NC(=O)[C@H](CCCNC(N)=O)NC(=O)[C@@H](NC(=O)COCCOCCNC(=O)O[C@H]6CC[C@@]7(C)C(=CC[C@H]8[C@@H]9CC[C@H]([C@H](C)CCCC(C)C)[C@@]9(C)CC[C@@H]87)C6)C(C)C)cc5)CC4)ccc3c2n1CC(C)(CO)CO"
Result string: 6.28

Query string: State its pEC50 on human toll like receptor 7 (hTLR7) (Homo sapiens, UniProt Q9NYK1): "CCCCc1nc2c(N)nc3cc(CCCN4CCN(C(=O)CCOCCOCCOCCOCCOCCOCCOCCOCCOCCOCCOCCOCCNC(=O)CCOCCOCCOCCOCCNC(=O)CCCOc5c(C)c(C)c6c(c5C)CC[C@@](C)(CCC[C@H](C)CCC[C@H](C)CCCC(C)C)O6)CC4)ccc3c2n1CC(C)(CO)CO"
Result string: 6.51

Query string: State its pEC50 on human toll like receptor 7 (hTLR7) (Homo sapiens, UniProt Q9NYK1): "CCCCc1nc2c(N)nc3cc(CCCN4CCN(CCCOCCOCCOCCOCCNC(=O)O[C@H]5CC[C@@]6(C)C(=CC[C@H]7[C@@H]8CC[C@H]([C@H](C)CCCC(C)C)[C@@]8(C)CC[C@@H]76)C5)CC4)ccc3c2n1CC(C)(CO)CO"
Result string: 5.94

Query string: State its pEC50 on human toll like receptor 7 (hTLR7) (Homo sapiens, UniProt Q9NYK1): "CCCCc1nc2c(N)nc3cc(CCCN4CCN(C(=O)CCOCCOCCOCCOCCOCCOCCOCCOCCOCCOCCOCCOCCNC(=O)CCOCCOCCOCCOCCNC(=O)O[C@H]5CC[C@@]6(C)C(=CC[C@H]7[C@@H]8CC[C@H]([C@H](C)CCCC(C)C)[C@@]8(C)CC[C@@H]76)C5)CC4)ccc3c2n1CC(C)(CO)CO"
Result string: 7.11

Query string: State its pEC50 on human toll like receptor 7 (hTLR7) (Homo sapiens, UniProt Q9NYK1): "CCOCc1nc2c(N)nc3cc(CCCN4CCN(C(=O)CCOCCOCCOCCOCCOCCOCCOCCOCCOCCOCCOCCOCCOCCOCCOCCOCCOCCOCCOCCOCCOCCOCCOCCOCCNC(=O)CCOCCOCCOCCOCCNC(=O)O[C@H]5CC[C@@]6(C)C(=CC[C@H]7[C@@H]8CC[C@H]([C@H](C)CCCC(C)C)[C@@]8(C)CC[C@@H]76)C5)CC4)ccc3c2n1CC(C)(CO)CO"
Result string: 7.14

Query string: State its pEC50 on human toll like receptor 7 (hTLR7) (Homo sapiens, UniProt Q9NYK1): "CCCCc1nc2c(N)nc3cc(CCCN4CCN(C(=O)CCOCCOCCOCCOCCOCCOCCOCCOCCOCCOCCOCCOCCOCCOCCOCCOCCOCCOCCOCCOCCOCCOCCOCCOCCNC(=O)CCOCCOCCOCCOCCNC(=O)CCCOc5c(C)c(C)c6c(c5C)CC[C@@](C)(CCC[C@H](C)CCC[C@H](C)CCCC(C)C)O6)CC4)ccc3c2n1CC(C)(CO)CO"
Result string: 6.45
